Data credit: patent US20090017017A1

- Experimental target: T1, Rhesus D antigen (human, UniProt Q02161 2-417)
- T1 construct: whole, on cells; Presented on RhD(+) erythrocytes; also called RhD; RhD antigen
- T1 sequence (looked up): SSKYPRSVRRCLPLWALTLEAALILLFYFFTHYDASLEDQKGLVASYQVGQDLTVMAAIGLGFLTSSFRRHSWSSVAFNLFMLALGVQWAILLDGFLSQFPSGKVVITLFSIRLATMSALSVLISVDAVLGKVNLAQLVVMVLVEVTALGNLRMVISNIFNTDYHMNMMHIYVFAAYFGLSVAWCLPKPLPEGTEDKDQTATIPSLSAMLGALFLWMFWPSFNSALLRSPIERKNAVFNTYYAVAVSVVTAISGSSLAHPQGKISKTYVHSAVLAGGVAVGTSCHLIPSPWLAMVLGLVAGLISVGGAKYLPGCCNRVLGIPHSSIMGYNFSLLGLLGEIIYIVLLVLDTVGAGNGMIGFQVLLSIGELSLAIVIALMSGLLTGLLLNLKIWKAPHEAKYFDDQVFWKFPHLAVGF
- Test details: Fab screening on RBC (agglutination, FACS)
Endpoint label: binding result

RhD302.160B10 (Fab, V domains shown, Tested as Fab in E. coli periplasmic extract (VH on human gamma 1 CH1, vector Em351)) VH: QVQLVESGGGVVQPGRSLRLSCAASGFTFSSYGMHWVRQAPGKGLEWVAFISYDGSNKYYADSVKGRFTISRDNSKNTLSLQMNSLRAEDTAVYYCAKEHGYYRSSWYRNYYYYGMDVWGQGTTVTVSS VL: DIQLTQSPSSLSASVGDRVTITCRASQSISSYLNWYKQRPGKAPKLLIYAASTLQSGVPSRFSGSGSGTDFALTISSLQAEDFATYYCQQTYSTLWTFGQGTKVEITR :: binds
RhD319.187A11 (Fab, V domains shown, Tested as Fab in E. coli periplasmic extract (VH on human gamma 1 CH1, vector Em351)) VH: QVQLVESGGGVVQPGRSLRLSCAASGFTFSTYGMHWVRQAPGKGLEWVAVIWYDGSNKNYADSVKGRFTISRDNSKNTLYLQMNSLRAEDTAVYYCARDLQGYRSSWYRMYYYYGMDVWGQGTTVTVSS VL: QTVVTQEPSLTVSPGGTVTLTCASSTGAVTSGYYPNWFQQKPGQAPRALIYSTSNKHSWTPARFSGSLLGGKAALTLSGVQPEDEAEYYCLLYYGGAQRWVFGGGTILTVLG :: binds
RhD306.223E11 (Fab, V domains shown, Tested as Fab in E. coli periplasmic extract (VH on human gamma 1 CH1, vector Em351)) VH: QVQLVESGGGVVQPGRSLRLSCAASGFTFSSYGMHWVRQAPGKGLEWVAVIWYDGSNKYYADSVKGRFTISRDNSKNTLYLQMNTLRDDDTAVYYCAREGTLYSSSWYRRYYYYGMDAWGQGTTVTVSS VL: EIVLTQSPGTLSLSPGERVTLSCRPSRYIASDYLAWYQLRPGQAPKLLIYGASSRATGIPDRFSGVGSPTDFTLTISRLEPEDFAMYYCHYSGGSPPYPFGQGTRLDIKR :: binds
